- System name: recombinant integrin α4β1 (Homo sapiens, UniProt P05556+P13612)
- Construct: purchased R&D Systems 5397-A3-050
- Sequence (P13612 34-970 limits assumed): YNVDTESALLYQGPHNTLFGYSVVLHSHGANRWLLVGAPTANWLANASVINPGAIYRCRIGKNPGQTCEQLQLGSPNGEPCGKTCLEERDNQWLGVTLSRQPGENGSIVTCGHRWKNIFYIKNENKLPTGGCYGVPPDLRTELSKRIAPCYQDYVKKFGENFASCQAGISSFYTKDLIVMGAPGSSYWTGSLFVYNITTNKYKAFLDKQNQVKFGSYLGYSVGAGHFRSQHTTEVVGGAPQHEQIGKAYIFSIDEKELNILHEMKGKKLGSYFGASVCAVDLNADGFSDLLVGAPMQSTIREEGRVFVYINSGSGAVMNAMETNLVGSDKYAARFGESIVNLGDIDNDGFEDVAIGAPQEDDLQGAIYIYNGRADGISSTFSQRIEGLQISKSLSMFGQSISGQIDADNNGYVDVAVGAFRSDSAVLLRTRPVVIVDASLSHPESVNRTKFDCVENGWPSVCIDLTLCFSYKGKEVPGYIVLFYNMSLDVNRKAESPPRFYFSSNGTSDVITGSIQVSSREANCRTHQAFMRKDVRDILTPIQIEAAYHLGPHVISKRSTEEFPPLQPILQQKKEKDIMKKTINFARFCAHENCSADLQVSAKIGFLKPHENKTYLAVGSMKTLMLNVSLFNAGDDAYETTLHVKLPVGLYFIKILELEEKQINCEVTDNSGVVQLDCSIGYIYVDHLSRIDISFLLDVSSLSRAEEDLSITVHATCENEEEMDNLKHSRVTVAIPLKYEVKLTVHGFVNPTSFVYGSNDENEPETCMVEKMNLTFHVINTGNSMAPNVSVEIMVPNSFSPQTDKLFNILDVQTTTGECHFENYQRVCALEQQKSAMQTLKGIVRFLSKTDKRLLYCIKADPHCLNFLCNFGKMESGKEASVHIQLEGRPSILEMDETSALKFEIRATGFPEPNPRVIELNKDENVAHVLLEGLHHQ
- Sequence (P05556 21-728 limits assumed): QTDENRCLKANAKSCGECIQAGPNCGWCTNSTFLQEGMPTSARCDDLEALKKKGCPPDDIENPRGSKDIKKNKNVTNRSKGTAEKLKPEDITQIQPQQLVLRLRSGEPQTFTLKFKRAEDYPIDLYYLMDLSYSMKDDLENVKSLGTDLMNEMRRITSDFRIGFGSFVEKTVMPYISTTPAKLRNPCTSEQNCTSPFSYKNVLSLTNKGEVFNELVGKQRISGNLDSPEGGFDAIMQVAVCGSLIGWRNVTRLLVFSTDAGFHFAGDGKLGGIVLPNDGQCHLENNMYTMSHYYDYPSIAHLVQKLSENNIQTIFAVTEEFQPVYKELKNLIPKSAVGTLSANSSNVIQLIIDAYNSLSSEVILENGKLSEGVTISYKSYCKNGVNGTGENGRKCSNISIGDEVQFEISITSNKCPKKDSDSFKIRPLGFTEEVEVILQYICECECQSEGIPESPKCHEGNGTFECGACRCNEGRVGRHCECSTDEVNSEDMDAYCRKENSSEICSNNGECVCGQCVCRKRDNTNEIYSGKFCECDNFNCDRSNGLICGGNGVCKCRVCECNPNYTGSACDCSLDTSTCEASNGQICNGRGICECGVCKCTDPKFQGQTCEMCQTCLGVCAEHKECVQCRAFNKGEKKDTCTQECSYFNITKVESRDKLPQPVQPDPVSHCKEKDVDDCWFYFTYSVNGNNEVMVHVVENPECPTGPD
- Assay overview: Integrin α4β1—VCAM-1 competition ELISA
- Format: binding
- Applied conditions: read-out: ELISA a4b1 Assay IC50
Examples of compounds with documented IC50 follow.

Compound string: COc1cccc(-c2ccccc2C[C@@H]2NC(=O)[C@@H]3CCCN3[C@H](C(=O)NC(C)(C)C)[C@H](C)NC(=O)[C@H]([C@@H](C)O)NC(=O)[C@H](CC(=O)O)NC(=O)[C@H](CC(C)C)NC(=O)[C@H]3CCCCN3C2=O)c1
IC50, nM: 209
//
Compound string: CC(C)C[C@@H]1NC(=O)[C@H](Cc2cccnc2)NC(=O)[C@@H]2C[C@@H](O)CN2[C@H](C(=O)NC(C)(C)C)[C@H](C)NC(=O)[C@H]([C@@H](C)O)NC(=O)[C@H](CC(=O)O)NC1=O
IC50, nM: 188
//
Compound string: CC(C)C[C@@H]1NC(=O)c2ccc(-c3ccccc3N3CCNCC3)c(c2)CNC(=O)[C@@H]2CCCN2[C@H](C(=O)NC(C)(C)C)[C@H](C)NC(=O)[C@H]([C@@H](C)O)NC(=O)[C@H](CC(=O)O)NC1=O
IC50, nM: 41
//
Compound string: CC(C)C[C@@H]1NC(=O)C[C@H](CCCCN)NC(=O)[C@@H](CCCNC(=N)N)NC(=O)[C@@H]2CCCN2[C@H](C(=O)NC(C)(C)C)[C@H](C)NC(=O)[C@H]([C@@H](C)O)NC(=O)[C@H](CC(=O)O)NC1=O
IC50, nM: 1090
//
Compound string: CO[C@H](C)[C@@H]1NC(=O)[C@H](CC(=O)O)NC(=O)[C@H](CC(C)C)NC(=O)[C@H](Cc2ccccc2)NC(=O)[C@@H]2CCCN2[C@H](C(=O)NC(C)(C)C)[C@H](C)NC1=O
IC50, nM: 119
//
Compound string: Cc1cccc(C)c1-c1ccc(C[C@@H]2NC(=O)[C@@H]3CCCN3[C@H](C(=O)NC(C)(C)C)[C@H](C)NC(=O)[C@H]([C@@H](C)O)NC(=O)[C@H](CC(=O)O)NC(=O)[C@H](CC(C)C)NC(=O)C[C@H](CCCCN)NC2=O)cc1
IC50, nM: 1870
//
Compound string: CC(C)C[C@@H]1NC(=O)c2ccc(-c3ccncc3)c(c2)CNC(=O)[C@H](Cc2ccc(O)cc2)NC(=O)[C@@H]2CCCN2[C@H](C(=O)NC(C)(C)C)[C@H](C)NC(=O)[C@H]([C@@H](C)O)NC(=O)[C@H](CC(=O)O)NC1=O
IC50, nM: 177
//
Compound string: CC(C)C[C@@H]1NC(=O)[C@H]2C[C@H](O)CN2C(=O)[C@H](Cc2ccc(CN)cc2)NC(=O)[C@@H]2CCCN2[C@H](C(=O)NC(C)(C)C)[C@H](C)NC(=O)[C@H]([C@@H](C)O)NC(=O)[C@H](CC(=O)O)NC1=O
IC50, nM: 1350
